TGT: Pim-1 (Homo sapiens (Human), UniProt P11309)
Sequence (P11309 whole entry): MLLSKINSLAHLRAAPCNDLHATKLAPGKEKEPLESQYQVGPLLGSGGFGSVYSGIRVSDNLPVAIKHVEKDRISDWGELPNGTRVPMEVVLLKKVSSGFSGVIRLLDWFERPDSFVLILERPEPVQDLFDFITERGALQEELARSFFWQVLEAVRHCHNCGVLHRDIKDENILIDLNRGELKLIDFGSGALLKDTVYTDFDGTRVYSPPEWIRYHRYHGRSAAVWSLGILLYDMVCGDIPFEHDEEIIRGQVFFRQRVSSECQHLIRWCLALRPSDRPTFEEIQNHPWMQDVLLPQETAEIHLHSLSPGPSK
RUN_DESCRIPTION: Pim enzyme assay (HTRF, phosphorylation of biotinylated-BAD (S112) peptide), Pim-1
Format: biochemical
PROTOCOL_CONDITIONS: full length recombinant Pim-1, biotinylated-BAD (S112) peptide, HTRF; read-out: Pim_1_IC50
OBSERVATION_TYPE: IC50 (nM)

compound="C[C@H]1CN(c2ccncc2Nc2ncc3ccc(-c4nccs4)nn23)C[C@@H](N)[C@@H]1O [Example 21]" observation_type=IC50 recorded_measurement=0.3
compound="Fc1cccc(F)c1-c1ccc2cnc(Nc3cnccc3OC3CNC3)n2n1 [Example 9]" observation_type=IC50 recorded_measurement=14
compound="N[C@H]1CCCN(c2ccncc2Nc2ncc3ccc(-c4ccc(F)cc4F)nn23)C1 [Example 12]" observation_type=IC50 recorded_measurement=0.4
compound="Nc1cccc(-c2ccncc2Nc2ncc3ccc(-c4c(F)cccc4F)nn23)c1 [Example 27]" observation_type=IC50 recorded_measurement=9
compound="N[C@H]1CCN(c2ccncc2Nc2ncc3ccc(-c4c(F)cccc4F)nn23)C1 [Example 13, bis(2,2,2-trifluoroacetate)]" observation_type=IC50 recorded_measurement=568
compound="N[C@H]1CCCN(c2ccncc2Nc2ncc3ccc(-c4cccnc4Cl)nn23)C1 [Example 6, (2,2,2-trifluoroacetate)]" observation_type=IC50 recorded_measurement=8
compound="N[C@H]1CCCN(c2ncncc2Nc2ncc3ccc(-c4ccccc4F)nn23)C1 [Example 14]" observation_type=IC50 recorded_measurement=35
compound="Clc1ccccc1-c1ccc2cnc(Nc3cnccc3N3CCNCC3)n2n1 [Example 5]" observation_type=IC50 recorded_measurement=107
compound="O[C@@H]1CCCN(c2ccncc2Nc2ncc3ccc(-c4ccccc4Cl)nn23)C1 [Example 17]" observation_type=IC50 recorded_measurement=192
compound="N[C@H]1CCCN(c2ccncc2Nc2ncc3ccc(-c4cccnc4F)nn23)C1 [Example 7]" observation_type=IC50 recorded_measurement=0.9
compound="Nc1cncc(-c2ccncc2Nc2ncc3ccc(-c4c(F)cccc4F)nn23)c1 [Example 29]" observation_type=IC50 recorded_measurement=206
compound="C[C@H]1CN(c2ccncc2Nc2ncc3ccc(-c4ccc(S(C)(=O)=O)cc4F)nn23)C[C@@H](N)[C@@H]1O [Example 23]" observation_type=IC50 recorded_measurement=0.1
compound="Clc1ccccc1-c1ccc2cnc(Nc3cnccc3O[C@H]3CCCNC3)n2n1 [Example 16, bis(2,2,2-trifluoroacetate)]" observation_type=IC50 recorded_measurement=44
compound="CN(C)c1ccncc1Nc1ncc2ccc(-c3c(F)cccc3F)nn12 [Example 26]" observation_type=IC50 recorded_measurement=534
compound="O[C@H]1CCCN(c2ccncc2Nc2ncc3ccc(-c4c(F)cccc4F)nn23)C1 [Example 19]" observation_type=IC50 recorded_measurement=3
compound="N[C@H]1CCCN(c2ccncc2Nc2ncc3ccc(-c4ccccc4Cl)nn23)C1 [Example 4]" observation_type=IC50 recorded_measurement=0.9

====

TGT: Pim-2 (Homo sapiens (Human), UniProt Q9P1W9)
Sequence (Q9P1W9 whole entry): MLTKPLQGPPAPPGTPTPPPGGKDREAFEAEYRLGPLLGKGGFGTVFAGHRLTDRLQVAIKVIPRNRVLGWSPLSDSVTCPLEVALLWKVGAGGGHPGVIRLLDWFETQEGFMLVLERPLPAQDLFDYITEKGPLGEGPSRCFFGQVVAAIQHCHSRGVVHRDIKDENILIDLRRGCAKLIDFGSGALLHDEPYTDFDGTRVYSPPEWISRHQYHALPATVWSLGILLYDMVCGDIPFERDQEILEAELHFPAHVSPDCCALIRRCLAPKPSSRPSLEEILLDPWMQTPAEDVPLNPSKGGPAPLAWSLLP
RUN_DESCRIPTION: Pim enzyme assay (HTRF, phosphorylation of biotinylated-BAD (S112) peptide), Pim-2
Assay type: biochemical
PROTOCOL_CONDITIONS: full length recombinant Pim-2, biotinylated-BAD (S112) peptide, HTRF, 96-well; read-out: Pim-2 IC50 IP
OBSERVATION_TYPE: IC50 (µM)

compound="C[C@@H]1CCN(c2ccncc2Nc2ncc3ccc(-c4c(F)cccc4F)nn23)C[C@H]1N (single isomer, unassigned) [Example 101, tris(2,2,2-trifluoroacetate)]" tgt="Pim-2 (Homo sapiens (Human), UniProt Q9P1W9)" observation_type=IC50 value_qualifier== recorded_measurement=0.0324
compound=N[C@H]1CCCN(c2ccncc2Nc2ncc3ccc(-c4cc(C(=O)NC5CC5)ccc4F)nn23)C1 tgt="Pim-2 (Homo sapiens (Human), UniProt Q9P1W9)" observation_type=IC50 value_qualifier== recorded_measurement=0.0005
compound="CN(C)C(=O)c1ccc(F)c(-c2ccc3cnc(Nc4cnccc4N4CCC[C@H](N)C4)n3n2)c1 [Example 89, (2,2,2-trifluoroacetate)]" tgt="Pim-2 (Homo sapiens (Human), UniProt Q9P1W9)" observation_type=IC50 value_qualifier== recorded_measurement=0.0053
compound=CN[C@H]1CCCN(c2ccncc2Nc2ncc3ccc(-c4c(F)cccc4F)nn23)C1 tgt="Pim-2 (Homo sapiens (Human), UniProt Q9P1W9)" observation_type=IC50 value_qualifier== recorded_measurement=0.031
compound="C[C@@H]1C[C@H](N)CN(c2ccncc2Nc2ncc3ccc(-c4ccccc4F)nn23)C1 (single isomer, unassigned) [Example 47, tris(2,2,2-trifluoroacetate)]" tgt="Pim-2 (Homo sapiens (Human), UniProt Q9P1W9)" observation_type=IC50 value_qualifier== recorded_measurement=0.0542
compound="COC(C)CN(C)c1ccncc1Nc1ncc2ccc(-c3c(F)cccc3F)nn12 (stereo not drawn)" tgt="Pim-2 (Homo sapiens (Human), UniProt Q9P1W9)" observation_type=IC50 value_qualifier=> recorded_measurement=1

====

Reported pIC50 values are given for each entry in this list.
TGT: Pim-1 (Homo sapiens (Human), UniProt P11309)
RUN_DESCRIPTION: Pim enzyme assay (HTRF, phosphorylation of biotinylated-BAD (S112) peptide), Pim-1
Format: biochemical
PROTOCOL_CONDITIONS: full length recombinant Pim-1, biotinylated-BAD (S112) peptide, HTRF, 96-well; read-out: Pim-1 IC50 IP
pIC50: −log10 of the molar value.
OBSERVATION_TYPE: pIC50

compound="C[C@@H]1C[C@H](N)CN(c2ccncc2Nc2ncc3ccc(-c4ncccc4Cl)nn23)C1 [Example 79]" tgt="Pim-1 (Homo sapiens (Human), UniProt P11309)" value_qualifier== recorded_measurement=9.70
compound="C[C@@H]1C[C@H](N)CN(c2ccncc2Nc2ncc3ccc(-c4ccccn4)nn23)C1 (relative stereo) [Example 63]" tgt="Pim-1 (Homo sapiens (Human), UniProt P11309)" value_qualifier== recorded_measurement=9.52
compound="CC(C)CN(C)c1ccncc1Nc1ncc2ccc(-c3c(F)cccc3F)nn12 [Example 81]" tgt="Pim-1 (Homo sapiens (Human), UniProt P11309)" value_qualifier== recorded_measurement=7.47
compound="C[C@@H]1C[C@H](N)CN(c2ccncc2Nc2ncc3ccc(-c4cc(C(=O)NC5CC5)ccc4F)nn23)C1 [Example 72]" tgt="Pim-1 (Homo sapiens (Human), UniProt P11309)" value_qualifier== recorded_measurement=10.00
compound="C[C@@H]1C[C@H](N)CN(c2ccncc2Nc2ncc3ccc(-c4nccs4)nn23)C1 [Example 62, bis(2,2,2-trifluoroacetate)]" tgt="Pim-1 (Homo sapiens (Human), UniProt P11309)" value_qualifier== recorded_measurement=9.52
compound="C[C@H]1CN(c2ccncc2Nc2ncc3ccc(-c4ncccc4F)nn23)C[C@@H](N)[C@@H]1O [Example 66]" tgt="Pim-1 (Homo sapiens (Human), UniProt P11309)" value_qualifier== recorded_measurement=9.52
compound="N[C@H]1CCCN(c2ccncc2Nc2nnc3ccc(-c4ncccc4F)nn23)C1 [Example 91, bis(2,2,2-trifluoroacetate)]" tgt="Pim-1 (Homo sapiens (Human), UniProt P11309)" value_qualifier== recorded_measurement=8.25
compound="Cc1cc(N)cc(-c2ccncc2Nc2ncc3ccc(-c4c(F)cccc4F)nn23)c1 [Example 42]" tgt="Pim-1 (Homo sapiens (Human), UniProt P11309)" value_qualifier== recorded_measurement=8.07
compound="COC(C)CN(C)c1ccncc1Nc1ncc2ccc(-c3c(F)cccc3F)nn12 (stereo not shown) [Example 77]" tgt="Pim-1 (Homo sapiens (Human), UniProt P11309)" value_qualifier== recorded_measurement=6.82
compound="C[C@@H]1C[C@H](N)CN(c2ccncc2Nc2ncc3ccc(-c4ccccc4F)nn23)C1 (single isomer, unassigned) [Example 46, tris(2,2,2-trifluoroacetate)]" tgt="Pim-1 (Homo sapiens (Human), UniProt P11309)" value_qualifier=> recorded_measurement=10.00
compound="N[C@H]1CCCN(c2ncncc2Nc2ncc3ccc(-c4c(F)cccc4F)nn23)C1 [Example 36]" tgt="Pim-1 (Homo sapiens (Human), UniProt P11309)" value_qualifier== recorded_measurement=7.72
compound="N[C@@H]1C=C(c2ccncc2Nc2ncc3ccc(-c4c(F)cccc4F)nn23)CCC1 (single isomer, unassigned) [Example 83, tris(2,2,2-trifluoroacetate)]" tgt="Pim-1 (Homo sapiens (Human), UniProt P11309)" value_qualifier== recorded_measurement=8.96
compound="N[C@H]1C[C@H](C(F)(F)F)CN(c2ccncc2Nc2ncc3ccc(-c4c(F)cccc4F)nn23)C1 (racemic) [Example 61, bis(2,2,2-trifluoroacetate)]" tgt="Pim-1 (Homo sapiens (Human), UniProt P11309)" value_qualifier== recorded_measurement=9.40
compound="C[C@H]1CCN(c2ccncc2Nc2ncc3ccc(-c4c(F)cccc4F)nn23)C[C@H]1N (single isomer, unassigned) [Example 99, bis(2,2,2-trifluoroacetate)]" tgt="Pim-1 (Homo sapiens (Human), UniProt P11309)" value_qualifier== recorded_measurement=9.52
compound="N[C@@H]1CCCN(c2ccncc2Nc2ncc3ccc(-c4c(F)cccc4F)nn23)C1 [Example 69]" tgt="Pim-1 (Homo sapiens (Human), UniProt P11309)" value_qualifier== recorded_measurement=8.12
compound="N[C@H]1CCCN(c2ccncc2Nc2nnc3ccc(-c4c(F)cccc4F)nn23)C1 [Example 67, 2,2,2-trifluoroacetate]" tgt="Pim-1 (Homo sapiens (Human), UniProt P11309)" value_qualifier== recorded_measurement=8.35
compound="C[C@@H]1C[C@H](N)CN(c2ccncc2Nc2nnc3ccc(-c4ncccc4F)nn23)C1 [Example 92]" tgt="Pim-1 (Homo sapiens (Human), UniProt P11309)" value_qualifier== recorded_measurement=8.80
compound="C[C@@H]1C[C@H](N)CN(c2ccncc2Nc2ncc3ccc(-c4ccccc4F)nn23)C1 (single isomer, unassigned) [Example 47, tris(2,2,2-trifluoroacetate)]" tgt="Pim-1 (Homo sapiens (Human), UniProt P11309)" value_qualifier== recorded_measurement=8.11
compound="CN(C)C(=O)c1ccc(F)c(-c2ccc3cnc(Nc4cnccc4N4CCC[C@H](N)C4)n3n2)c1 [Example 89, (2,2,2-trifluoroacetate)]" tgt="Pim-1 (Homo sapiens (Human), UniProt P11309)" value_qualifier== recorded_measurement=8.46
compound="N[C@H]1C[C@@H](C(F)(F)F)CN(c2ccncc2Nc2ncc3ccc(-c4c(F)cccc4F)nn23)C1 (racemic) [Example 60, bis(2,2,2-trifluoroacetate)]" tgt="Pim-1 (Homo sapiens (Human), UniProt P11309)" value_qualifier== recorded_measurement=10.00
compound="N[C@H]1CCCN(c2ccccc2Nc2ncc3ccc(-c4c(F)cccc4F)nn23)C1 [Example 73]" tgt="Pim-1 (Homo sapiens (Human), UniProt P11309)" value_qualifier== recorded_measurement=8.66
compound="N[C@H]1C[C@@H](F)CN(c2ccncc2Nc2ncc3ccc(-c4c(F)cccc4F)nn23)C1 [Example 48, tris(2,2,2-trifluoroacetate)]" tgt="Pim-1 (Homo sapiens (Human), UniProt P11309)" value_qualifier== recorded_measurement=9.10
compound="C[C@@H]1CN(c2ccncc2Nc2ncc3ccc(-c4c(F)cccc4F)nn23)C[C@@H](N)[C@H]1O [Example 41]" tgt="Pim-1 (Homo sapiens (Human), UniProt P11309)" value_qualifier== recorded_measurement=10.00
compound="N[C@@H]1C=C(c2ccncc2Nc2ncc3ccc(-c4c(F)cccc4F)nn23)CCC1 (single isomer, unassigned) [Example 84, tris(2,2,2-trifluoroacetate)]" tgt="Pim-1 (Homo sapiens (Human), UniProt P11309)" value_qualifier== recorded_measurement=7.52
compound="O[C@@H]1CCN(c2ccncc2Nc2ncc3ccc(-c4c(F)cccc4F)nn23)C[C@H]1O (single isomer, unassigned) [Example 35]" tgt="Pim-1 (Homo sapiens (Human), UniProt P11309)" value_qualifier== recorded_measurement=8.57

From: patent US9187486B2
